For each entry below, report its Kd value.
- system: T1, extracellular domain of rhesus monkey BCMA (rhesus monkey, UniProt F7FFA0 1-53)
- T1 construct: extracellular domain; also called RhBCMA
- T1 sequence (F7FFA0 entry or part of it): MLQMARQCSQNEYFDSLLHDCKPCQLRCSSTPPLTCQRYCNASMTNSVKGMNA
- test_summary: Octet BLI; Fab 200 nM
# number only, unit nM dropped from output

## Input Form field: reported Kd of AB200-(2Vk35)_R2-VH-v26 (Fab, V domains shown) VH: QVQLVQSGAEVKKPGSSVKVSCKASGGTFSNYWIHWVRQAPGQGLEWMGATYRSHSTTYYAQKFKSRVTITADKSTSTAYMELSSLRSEDTAVYYCARGAIFHGYDVIDNWGQGTLVTVSS VL: DIQMTQSPSSLSASVGDRVTITCRASQSISSYINWYQQKPGKAPKLLIYATSNLQSGVPSRFSGSGSGTDFTLTISSLQPEDFATYYCQQYRRIPWTFGQGTKLEIKR
## Output 40.7

## Input Repeat with AB200-(2Vk35)_R2-VH-v49 (Fab, V domains shown) VH: QVQLVQSGAEVKKPGSSVKVSCKASGGTYSNYWIHWVRQAPGQGLEWMGATYRIQSTTYYNQKFKSRVTITADKSTSTAYMELSSLRSEDTAVYYCARGAIYHGYDVIENWGQGTLVTVSS VL: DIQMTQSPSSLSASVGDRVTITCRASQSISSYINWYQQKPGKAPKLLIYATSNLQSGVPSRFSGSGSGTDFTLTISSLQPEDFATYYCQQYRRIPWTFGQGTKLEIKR
## Output 126

## Input Repeat with AB200-(2Vk35)_R2-VH-v69 (Fab, V domains shown) VH: QVQLVQSGAEVKKPGSSVKVSCKASGGTFSNYWIHWVRQAPGQGLEWMGATYRIQSDTNYNQKFKSRVTITADKSTSTAYMELSSLRSEDTAVYYCARGAVYHGYDVIDNWGQGTLVTVSS VL: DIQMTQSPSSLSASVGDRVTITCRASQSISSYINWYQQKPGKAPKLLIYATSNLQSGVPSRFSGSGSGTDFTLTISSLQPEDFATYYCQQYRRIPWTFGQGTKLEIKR
## Output 46.6

## Input Repeat with AB200-(2Vk35)_R2-VH-v46 (Fab, V domains shown) VH: QVQLVQSGAEVKKPGSSVKVSCKASGGTYSNYWIHWVRQAPGQGLEWMGATYRIQSDTNYNQKFKSRVTITADKSTSTAYMELSSLRSEDTAVYYCARGAIYHGYDVIENWGQGTLVTVSS VL: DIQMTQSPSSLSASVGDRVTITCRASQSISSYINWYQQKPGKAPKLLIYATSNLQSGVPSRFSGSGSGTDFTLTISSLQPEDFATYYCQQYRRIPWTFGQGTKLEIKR
## Output 287

## Input Repeat with AB200-(2Vk35)_R2-VH-v38 (Fab, V domains shown) VH: QVQLVQSGAEVKKPGSSVKVSCKASGGTFSNYWIHWVRQAPGQGLEWMGATYRSQSDTYYNEKFKSRVTITADKSTSTAYMELSSLRSEDTAVYYCARGAIYHGFDVIDNWGQGTLVTVSS VL: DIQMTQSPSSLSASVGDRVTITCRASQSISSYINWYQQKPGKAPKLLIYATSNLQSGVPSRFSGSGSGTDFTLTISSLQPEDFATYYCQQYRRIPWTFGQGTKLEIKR
## Output 9.59

## Input Repeat with AB200-(2Vk35)_R2-VH-v56 (Fab, V domains shown) VH: QVQLVQSGAEVKKPGSSVKVSCKASGGSFSNYWIHWVRQAPGQGLEWMGATYRIHSDTYYAQKYKSRVTITADKSTSTAYMELSSLRSEDTAVYYCARGAIFHGYDVIDNWGQGTLVTVSS VL: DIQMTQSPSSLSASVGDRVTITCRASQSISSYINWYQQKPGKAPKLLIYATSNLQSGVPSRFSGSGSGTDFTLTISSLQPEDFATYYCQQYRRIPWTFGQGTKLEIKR
## Output 44.7
